Examples of molecules with documented 20mM inhibition LmjIPCS follow.
target_system: LmjIPCS (inositol phosphorylceramide synthase from L. major) (Leishmania major, UniProt E9AFX2)
Sequence (E9AFX2 whole entry): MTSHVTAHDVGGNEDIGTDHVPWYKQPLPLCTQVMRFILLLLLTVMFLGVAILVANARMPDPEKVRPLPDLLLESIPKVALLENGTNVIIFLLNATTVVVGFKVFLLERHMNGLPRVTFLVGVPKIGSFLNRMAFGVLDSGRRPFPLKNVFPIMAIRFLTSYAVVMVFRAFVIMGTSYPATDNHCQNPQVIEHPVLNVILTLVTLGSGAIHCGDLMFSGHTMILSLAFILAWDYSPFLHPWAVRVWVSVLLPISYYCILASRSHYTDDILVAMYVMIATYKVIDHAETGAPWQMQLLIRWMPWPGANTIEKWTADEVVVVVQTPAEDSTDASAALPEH
method: biochemical
Type: biochemical
Reply with just the number (in %).

Illustrative cases are given below, each with its answer.
c1ccc(CN(CC2=NCCN2)c2ccccc2)cc1	61
CCCNCC(O)COc1ccccc1C(=O)CCc1ccccc1 (stereo not shown)	61
FC(F)(F)c1cccc(N2CCNCC2)c1	54
NC(CO)C(=O)NNCc1ccc(O)c(O)c1O (stereo not shown) [BENSERAZIDE]	43
Cc1ccccc1N1C(=O)c2cc(S(N)(=O)=O)c(Cl)cc2NC1C (stereo not shown)	50

# input Reported 20mM inhibition LmjIPCS, molecule O=[N+]([O-])c1cc(O)c(O)c([N+](=O)[O-])c1 : ____
# output 8

# input Please give the measured 20mM inhibition LmjIPCS for this molecule: CCN(CC)CCNc1ccc(CO)c2sc3ccccc3c(=O)c12
# output 46

# input Item COc1ccc2c(c1)CC[C@@H]1[C@@H]2CC[C@]2(C)[C@@H](O)CC[C@@H]12 has what recorded 20mM inhibition LmjIPCS?
# output 40

# input Which 20mM inhibition LmjIPCS is listed for N=C(N)N ?
# output 20

# input Query: 20mM inhibition LmjIPCS; subject: CC1(C)S[C@@H]2[C@H](NC(=O)C(C(=O)O)c3ccccc3)C(=O)N2[C@H]1C(=O)O (stereo partly shown)
# output 52
